testTarget: T1, Human CD137 ECD (human)
T1 construct: entry includes C-terminal His-tag and biotin acceptor peptide; also called human CD137 extracellular domain; 4-1BB
T1 sequence (chain, as listed by the source limits assumed): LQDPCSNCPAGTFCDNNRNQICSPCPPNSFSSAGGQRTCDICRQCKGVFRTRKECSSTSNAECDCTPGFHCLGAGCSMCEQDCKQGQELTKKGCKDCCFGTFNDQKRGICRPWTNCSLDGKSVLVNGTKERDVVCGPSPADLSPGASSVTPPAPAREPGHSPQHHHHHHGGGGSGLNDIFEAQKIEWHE
assayNotes: Biacore SPR, vs parent H183/L072
reportedMetric: fold change of affinity (fold)

>>> reading("H183/L072 VL V94L (antibody, name in Kabat numbering, V domains shown, Dual-Ig) VH: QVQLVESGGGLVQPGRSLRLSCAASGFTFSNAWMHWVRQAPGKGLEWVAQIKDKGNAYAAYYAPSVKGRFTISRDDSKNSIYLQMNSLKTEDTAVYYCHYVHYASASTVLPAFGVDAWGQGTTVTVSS VL: DIVMTQSPLSLPVTPGEPASISCQASQELVHMNRNTYLHWYQQKPGQAPRLLIYKVSNRFPGVPDRFSGSGSGTDFTLKISRVEAEDVGVYYCAQGTSLPFTFGQGTKLEIK")
0.3
>>> reading("H183/L072 VL F96N (antibody, name in Kabat numbering, V domains shown, Dual-Ig) VH: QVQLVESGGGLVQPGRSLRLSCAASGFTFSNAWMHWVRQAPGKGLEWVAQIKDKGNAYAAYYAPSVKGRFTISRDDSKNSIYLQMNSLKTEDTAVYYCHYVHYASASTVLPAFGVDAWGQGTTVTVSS VL: DIVMTQSPLSLPVTPGEPASISCQASQELVHMNRNTYLHWYQQKPGQAPRLLIYKVSNRFPGVPDRFSGSGSGTDFTLKISRVEAEDVGVYYCAQGTSVPNTFGQGTKLEIK")
0
>>> reading("H183/L072 VL N53R (antibody, name in Kabat numbering, V domains shown, Dual-Ig) VH: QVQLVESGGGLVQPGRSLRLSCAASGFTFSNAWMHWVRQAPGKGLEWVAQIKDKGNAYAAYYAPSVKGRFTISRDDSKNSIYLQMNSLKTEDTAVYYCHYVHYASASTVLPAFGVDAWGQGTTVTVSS VL: DIVMTQSPLSLPVTPGEPASISCQASQELVHMNRNTYLHWYQQKPGQAPRLLIYKVSRRFPGVPDRFSGSGSGTDFTLKISRVEAEDVGVYYCAQGTSVPFTFGQGTKLEIK")
0.3
>>> reading("H183/L072 VL L27bF (antibody, name in Kabat numbering, V domains shown, Dual-Ig) VH: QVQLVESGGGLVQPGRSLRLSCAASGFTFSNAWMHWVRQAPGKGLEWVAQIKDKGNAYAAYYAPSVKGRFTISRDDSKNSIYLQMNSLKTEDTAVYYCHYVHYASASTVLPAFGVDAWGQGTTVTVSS VL: DIVMTQSPLSLPVTPGEPASISCQASQEFVHMNRNTYLHWYQQKPGQAPRLLIYKVSNRFPGVPDRFSGSGSGTDFTLKISRVEAEDVGVYYCAQGTSVPFTFGQGTKLEIK")
0.3
>>> reading("H183/L072 VL S52H (antibody, name in Kabat numbering, V domains shown, Dual-Ig) VH: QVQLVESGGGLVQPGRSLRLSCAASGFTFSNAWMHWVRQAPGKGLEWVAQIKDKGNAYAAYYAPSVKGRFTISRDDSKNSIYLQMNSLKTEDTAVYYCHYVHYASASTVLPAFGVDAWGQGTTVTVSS VL: DIVMTQSPLSLPVTPGEPASISCQASQELVHMNRNTYLHWYQQKPGQAPRLLIYKVHNRFPGVPDRFSGSGSGTDFTLKISRVEAEDVGVYYCAQGTSVPFTFGQGTKLEIK")
1.2
